test system: MCF-7; assay: MTT cell growth inhibition: MCF-7; assay type: cell-based; conditions: Homo sapiens, MCF7; MCF-7 breast carcinoma; 25 µM; 72 h; MTT; read-out: Percentage (%) Cell Growth Inhibition in response to 25 µM of Drug
Metric: inhibition at 25 µM (%)
Give bare numbers, in %.

Illustrative cases are given below, each with its answer.
{"Structure Smiles String": "CC1(C)OB(c2cccc(CN3C(=O)c4c(Cl)c(Cl)c(Cl)c(Cl)c4C3=O)c2)OC1(C)C", "inhibition at 25 µM [%]": 67}
{"Structure Smiles String": "CC1(C)OB(c2cccc(NC(=O)c3cc(Cl)c(Cl)c(Cl)c3Cl)c2)OC1(C)C", "inhibition at 25 µM [%]": 16}

We next turn to a different compound, shown below.
Which inhibition at 25 µM value is on record for `CC1(C)OB(c2ccc(NC(=O)c3cc(Cl)c(Cl)c(Cl)c3Cl)cc2)OC1(C)C` ?
42

###

Give inhibition at 100 µM for every item shown.
Target: Jack bean α-mannosidase (Canavalia ensiformis)
Construct: purchased Sigma-Aldrich Co
Sequence (C0HJB3 whole entry): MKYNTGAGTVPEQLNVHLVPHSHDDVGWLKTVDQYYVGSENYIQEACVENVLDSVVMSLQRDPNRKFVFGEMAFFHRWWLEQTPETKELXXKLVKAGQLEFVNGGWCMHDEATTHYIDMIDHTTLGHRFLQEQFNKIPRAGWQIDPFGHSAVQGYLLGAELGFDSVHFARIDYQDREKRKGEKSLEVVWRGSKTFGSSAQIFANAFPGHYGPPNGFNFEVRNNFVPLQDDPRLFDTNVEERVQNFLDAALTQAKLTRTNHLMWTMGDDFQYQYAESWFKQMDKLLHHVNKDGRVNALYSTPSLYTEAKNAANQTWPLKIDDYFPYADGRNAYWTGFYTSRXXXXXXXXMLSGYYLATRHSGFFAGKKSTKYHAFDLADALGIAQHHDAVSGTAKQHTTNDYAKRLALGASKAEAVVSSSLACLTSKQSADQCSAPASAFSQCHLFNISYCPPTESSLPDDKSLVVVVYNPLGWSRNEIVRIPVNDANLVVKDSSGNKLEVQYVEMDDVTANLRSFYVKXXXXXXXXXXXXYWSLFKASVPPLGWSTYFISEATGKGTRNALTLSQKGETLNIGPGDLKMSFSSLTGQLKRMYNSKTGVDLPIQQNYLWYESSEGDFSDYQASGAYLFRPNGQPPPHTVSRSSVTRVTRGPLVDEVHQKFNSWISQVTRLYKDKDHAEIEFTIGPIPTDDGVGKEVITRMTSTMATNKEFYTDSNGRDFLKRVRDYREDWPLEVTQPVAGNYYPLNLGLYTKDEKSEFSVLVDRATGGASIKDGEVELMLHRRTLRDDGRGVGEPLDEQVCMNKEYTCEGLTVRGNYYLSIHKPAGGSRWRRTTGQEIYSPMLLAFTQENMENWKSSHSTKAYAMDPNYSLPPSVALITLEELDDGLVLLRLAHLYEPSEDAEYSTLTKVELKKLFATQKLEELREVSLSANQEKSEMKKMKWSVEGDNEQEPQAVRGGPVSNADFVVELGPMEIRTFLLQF
Test: Glycosidase inhibition, laboratory 1: Jack bean α-mannosidase
Assay type: biochemical
Details: 100 μM, methanol
Procedure: […] Brush border membranes were prepared from the rat small intestine according to the method of Kessler et al. and were assayed at pH 6.8 for rat intestinal maltase using maltose. […] The absorbance at 505 nm was measured to determine the amount of the released D-glucose. Other glycosidase activities were determined using an appropriate para-nitrophenyl glycoside as substrate at the optimum pH of each enzyme. […] The released para-nitrophenol was measured spectrometrically at 400 nm. […]
Number first, unit second: that is the form wanted.

Illustrative cases are given below, each with its answer.
{"Structure Smiles String": "CC1(C)OB(c2ccc(NC(=O)c3cc(Cl)c(Cl)c(Cl)c3Cl)cc2)OC1(C)C", "Metric": "inhibition at 100 µM", "Observed Value": "19.3%"}
{"Structure Smiles String": "CC1(C)OB(c2ccc(CN3C(=O)c4c(Cl)c(Cl)c(Cl)c(Cl)c4C3=O)cc2)OC1(C)C", "Metric": "inhibition at 100 µM", "Observed Value": "0%"}
{"Structure Smiles String": "CC1(C)OB(c2ccccc2CNC(=O)c2cc(Cl)c(Cl)c(Cl)c2Cl)OC1(C)C", "Metric": "inhibition at 100 µM", "Observed Value": "12.5%"}

Which inhibition at 100 µM value is on record for `CC1(C)OB(c2cccc(NC(=O)c3cc(Cl)c(Cl)c(Cl)c3Cl)c2)OC1(C)C` ?
7.6%

###

biological target: UniProtKB P05804
Sequence (P05804 whole entry): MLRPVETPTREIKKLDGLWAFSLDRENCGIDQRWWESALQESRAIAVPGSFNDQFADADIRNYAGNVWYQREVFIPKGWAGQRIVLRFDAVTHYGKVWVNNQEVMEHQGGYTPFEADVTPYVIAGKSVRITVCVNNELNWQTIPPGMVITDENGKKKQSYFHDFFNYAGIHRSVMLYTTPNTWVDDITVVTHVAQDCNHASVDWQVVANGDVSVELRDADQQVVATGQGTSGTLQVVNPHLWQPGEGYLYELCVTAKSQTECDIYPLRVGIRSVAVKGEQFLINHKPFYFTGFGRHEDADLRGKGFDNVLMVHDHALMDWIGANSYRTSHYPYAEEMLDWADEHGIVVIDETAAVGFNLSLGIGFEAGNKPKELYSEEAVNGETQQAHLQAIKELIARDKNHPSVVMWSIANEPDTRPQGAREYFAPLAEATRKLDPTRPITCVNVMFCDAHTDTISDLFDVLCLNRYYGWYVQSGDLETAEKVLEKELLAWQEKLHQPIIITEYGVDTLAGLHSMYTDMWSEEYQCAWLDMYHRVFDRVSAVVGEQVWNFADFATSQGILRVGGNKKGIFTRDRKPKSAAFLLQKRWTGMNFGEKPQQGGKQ
Metric: IC50 (µM)
Answers are plain numbers, in µM.

Which IC50 value is on record for `CC1(C)OB(c2cccc(NC(=O)c3cc(Cl)c(Cl)c(Cl)c3Cl)c2)OC1(C)C` ?
932

###

Give inhibition at 100 µM for every item shown.
molecular target: coffee beans α-galactosidase (Coffea arabica, UniProt Q42656); construct: purchased Sigma-Aldrich Co; assay: Glycosidase inhibition, laboratory 1: coffee beans α-galactosidase; assay type: biochemical; details: 100 μM, methanol
Sequence (Q42656 16-378): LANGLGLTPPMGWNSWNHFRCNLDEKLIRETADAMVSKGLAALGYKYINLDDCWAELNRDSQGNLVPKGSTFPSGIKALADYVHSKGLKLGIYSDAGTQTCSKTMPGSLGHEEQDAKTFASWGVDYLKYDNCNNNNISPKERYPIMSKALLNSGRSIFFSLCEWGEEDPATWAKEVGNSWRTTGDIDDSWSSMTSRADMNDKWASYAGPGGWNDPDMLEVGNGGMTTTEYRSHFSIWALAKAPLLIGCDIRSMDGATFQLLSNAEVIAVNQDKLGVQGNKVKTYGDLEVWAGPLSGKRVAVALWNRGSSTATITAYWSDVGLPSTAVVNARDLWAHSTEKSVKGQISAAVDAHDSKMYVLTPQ
Answers are plain numbers, in %.

Illustrative cases are given below, each with its answer.
{"Structure Smiles String": "CC1(C)OB(c2ccccc2CNC(=O)c2cc(Cl)c(Cl)c(Cl)c2Cl)OC1(C)C", "Experimental System": "coffee beans α-galactosidase (Coffea arabica, UniProt Q42656)", "Metric": "inhibition at 100 µM", "Observed Value": 114}
{"Structure Smiles String": "CC1(C)OB(c2cccc(NC(=O)c3cc(Cl)c(Cl)c(Cl)c3Cl)c2)OC1(C)C", "Experimental System": "coffee beans α-galactosidase (Coffea arabica, UniProt Q42656)", "Metric": "inhibition at 100 µM", "Observed Value": 30.2}
{"Structure Smiles String": "CC1(C)OB(c2ccc(CN3C(=O)c4c(Cl)c(Cl)c(Cl)c(Cl)c4C3=O)cc2)OC1(C)C", "Experimental System": "coffee beans α-galactosidase (Coffea arabica, UniProt Q42656)", "Metric": "inhibition at 100 µM", "Observed Value": 0.2}

We next turn to a different molecule, shown below.
Which inhibition at 100 µM value is on record for `CC1(C)OB(c2ccc(NC(=O)c3cc(Cl)c(Cl)c(Cl)c3Cl)cc2)OC1(C)C` ?
35.8
